tgt: SIRT1 (Homo sapiens)
Sequence (Q96EB6 whole entry): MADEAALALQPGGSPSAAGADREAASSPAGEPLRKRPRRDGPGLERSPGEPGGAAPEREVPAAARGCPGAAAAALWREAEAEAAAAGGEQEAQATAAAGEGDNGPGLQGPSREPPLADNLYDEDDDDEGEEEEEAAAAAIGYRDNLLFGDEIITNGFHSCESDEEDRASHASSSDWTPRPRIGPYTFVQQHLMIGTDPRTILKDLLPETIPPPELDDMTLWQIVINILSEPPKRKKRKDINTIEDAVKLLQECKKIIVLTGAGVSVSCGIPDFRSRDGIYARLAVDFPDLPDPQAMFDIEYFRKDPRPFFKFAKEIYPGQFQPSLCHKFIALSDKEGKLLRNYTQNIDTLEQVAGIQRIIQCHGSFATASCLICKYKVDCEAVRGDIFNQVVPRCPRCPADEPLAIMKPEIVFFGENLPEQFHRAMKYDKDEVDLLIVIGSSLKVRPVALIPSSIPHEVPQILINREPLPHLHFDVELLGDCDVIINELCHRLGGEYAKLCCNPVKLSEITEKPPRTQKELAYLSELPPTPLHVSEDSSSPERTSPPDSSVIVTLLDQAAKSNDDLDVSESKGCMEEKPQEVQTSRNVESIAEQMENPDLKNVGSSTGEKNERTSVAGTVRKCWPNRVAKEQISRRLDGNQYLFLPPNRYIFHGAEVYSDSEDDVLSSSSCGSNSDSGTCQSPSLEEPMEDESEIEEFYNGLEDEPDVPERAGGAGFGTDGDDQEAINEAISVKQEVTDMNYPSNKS
test summary: TAMRA based mass spectrometry assay of SIRT1 activity
Format: biochemical
cond: TAMRA assay; concentration giving 150% activation of SIRT1
experimental readout: TAMRA EC1.5 (μM)

Worked cases, answers included:
The measured TAMRA EC1.5 (μM) associated with "Cc1nc2ccc(-c3ccccc3C(F)(F)F)nn2c1NC(=O)c1cccc(N2CCOCC2)n1" reads A (EC1.5<1 μM)

Record summary for "CCOc1nccc(NC(=O)c2cnc3ccc(-c4ccccc4C(F)(F)F)nn23)n1" : reported TAMRA EC1.5 (μM) = A (EC1.5<1 μM)

Input "O=C(Nc1ccc(N2CCOCC2)cn1)c1cnc2ccc(-c3ccccc3C(F)(F)F)nn12" . Output TAMRA EC1.5 (μM): A (EC1.5<1 μM)

// TAMRA EC1.5 (μM) lookup, molecule = "Cc1nc2ccc(-c3ccccc3Cl)nn2c1NC(=O)c1nccs1" , result: B (EC1.5 1-25 μM)

Consider "COc1nccc(NC(=O)c2cnn3ccc(-c4ccccc4OC(F)(F)F)nc23)n1" . Its measured TAMRA EC1.5 (μM) is A (EC1.5<1 μM)

Entry "Cc1nc(C(=O)Nc2c(C)nc3ccc(-c4ccccc4Cl)nn23)cs1" — recorded TAMRA EC1.5 (μM) = B (EC1.5 1-25 μM)

Continuing:
Measured TAMRA EC1.5 (μM), "Cc1nccc(NC(=O)c2cnn3ccc(-c4ccccc4C(F)(F)F)nc23)c1C" : B (EC1.5 1-25 μM)

Briefly, TAMRA EC1.5 (μM) measured for "Cc1cc(C)nc(NC(=O)c2cnn3ccc(-c4ccccc4C(F)(F)F)nc23)n1" : A (EC1.5<1 μM)

TAMRA EC1.5 (μM) recorded for this molecule, Cc1cccc(NC(=O)c2cnc3ccc(-c4ccccc4OCC(O)CO)nn23)n1 (centres unmarked) , is A (EC1.5<1 μM)

So, "Cc1cc(C)nc(NC(=O)c2c(O)nc3ccc(-c4ccccc4C(F)(F)F)nn23)c1" ? Its TAMRA EC1.5 (μM) was B (EC1.5 1-25 μM)

Recorded TAMRA EC1.5 (μM) (molecule "O=C(Nc1cccnc1)c1cnn2ccc(-c3ccccc3C(F)(F)F)nc12" ): B (EC1.5 1-25 μM)

// "Cc1cc(-c2ccccc2C(F)(F)F)nn2c(C(=O)Nc3ccnc(OC(C)C)n3)cnc12" : TAMRA EC1.5 (μM) value = A (EC1.5<1 μM)

For this molecule ( "Cc1nc2ccc(-c3ccccc3Cl)nn2c1C(=O)Nc1cccnn1" ), measured TAMRA EC1.5 (μM) is B (EC1.5 1-25 μM)

Consider "O=C(Nc1cccnn1)c1cnc2ccc(-c3ccccc3OC(F)(F)F)nn12" . Its measured TAMRA EC1.5 (μM) is A (EC1.5<1 μM)

###

tgt: SIRT1 (Homo sapiens)
test summary: TAMRA based mass spectrometry assay of SIRT1 activity
Type: biochemical
cond: percent maximum fold activation of SIRT1; TAMRA peptide substrate; read-out: TAMRA % Fold Act
experimental readout: Emax

Some entries whose results are on file:
The value of Emax recorded for "O=C(Nc1nc(CN2CCOCC2)cs1)c1cnc2ccc(-c3ccc(F)c(F)c3)nn12" when tested on SIRT1 (Homo sapiens) reads < 350%

SIRT1 (Homo sapiens) assay, compound O=C(Nc1cnc2ccc(-c3ccccc3C(F)(F)F)nn12)c1cccc(OCC(O)CO)n1 (stereo not shown) , recorded Emax = ≥ 350%

# "O=C(Nc1ccnc(N2CCOCC2)c1)c1cnc2ccc(-c3ccccc3C(F)F)nn12" with SIRT1 (Homo sapiens): Emax is ≥ 350%

The compound "O=C(Nc1ccnc(N2CCC2)c1)c1cnc2ccc(-c3ccccc3F)nn12" on SIRT1 (Homo sapiens): Emax was ≥ 350%

Next:
Short answer on SIRT1 (Homo sapiens) for "COCCn1cc(NC(=O)c2cnc3ccc(-c4ccccc4C(F)(F)F)nn23)cn1" , Emax: ≥ 350%

Item "Cn1cnc(C(=O)Nc2cnc3ccc(-c4ccccc4C(F)(F)F)nn23)c1" was tested on SIRT1 (Homo sapiens); the reported Emax is ≥ 350%

Record for "O=C(Nc1cncc(F)c1)c1cnc2ccc(-c3ccccc3C(F)(F)F)nn12" under target or system SIRT1 (Homo sapiens): Emax reported as ≥ 350%

Readout Emax for "O=C(Nc1nc(CN2CCOCC2)cs1)c1cnc2ccc(-c3cccc(F)c3F)nn12" , test system SIRT1 (Homo sapiens), was ≥ 350%
